readout kind: melting point (°C)

compound	melting point, °C
CCc1cc2ccc(C(C)(C#N)Cc3cccc(COC)c3)cc2[nH]c1=O (stereo not drawn)	122
CCc1cc2ccc(C(C)(C#N)C(C)c3ccccc3)cc2[nH]c1=O (stereo not drawn)	198
CCc1cc2ccc(C(C#N)(CC)Cc3ccccc3)cc2[nH]c1=O (stereo not drawn)	198
CCc1cc2ccc(C(C)(C#N)Cc3cccc(C(=O)NC)c3)cc2[nH]c1=O (stereo not drawn)	182
CCc1cc2ccc(C(C)(C#N)Cc3c(F)ccc(C)c3F)cc2[nH]c1=O (stereo not drawn)	190
CCc1cc2ccc(C(C#N)(Cc3ccccc3)c3ccccc3)cc2[nH]c1=O (stereo not drawn)	229

1 = CCc1cc2ccc(C(C)(C#N)CCOc3ccc([N+](=O)[O-])cc3)cc2[nH]c1=O (stereo not drawn)
2 = CCc1cc2ccc(C(C)(C#N)Cc3cccc(N(C)C)n3)cc2[nH]c1=O (stereo not drawn)
Select one. Lower melting point: 1 or 2 Kindly give the label for the entry you pick. 2

----------
readout kind: melting point (°C)

Worked examples, 3 molecules total:
molecule	melting point / °C
CCc1cc2ccc([C@@](C)(C#N)C[C@@H]3CCc4cc(C)ccc4O3)cc2[nH]c1=O	184
CCc1cc2ccc(C(C)(C#N)Cc3cc(C)cc(C#N)c3)cc2[nH]c1=O (centres unmarked)	212
CCc1cc2ccc([C@@](C)(C#N)Cc3ccccc3)cc2[nH]c1=O (single isomer, unassigned)	177

1 = CCc1cc2ccc(C(C)(C#N)Cc3cccc(Br)c3)cc2[nH]c1=O (centres unmarked)
2 = CCc1cc2ccc(C(C)(C#N)Cc3cccc(CN)n3)cc2[nH]c1=O (centres unmarked)
Select one. Lower melting point: 1 or 2 Kindly give the label for the entry you pick. 2

A = CCc1cc2ccc([C@](C)(C#N)[C@@H](C)c3ccccc3)cc2[nH]c1=O
B = C#Cc1cccc(CC(C)(C#N)c2ccc3cc(CC)c(=O)[nH]c3c2)n1 (centres unmarked)
Select one. Lower melting point: A or B Kindly give the label for the entry you pick. B

----------
# target desc: TANK-2 enzyme (Homo sapiens)
# Construct: made in house
# Sequence (Q9H2K2 1-1166): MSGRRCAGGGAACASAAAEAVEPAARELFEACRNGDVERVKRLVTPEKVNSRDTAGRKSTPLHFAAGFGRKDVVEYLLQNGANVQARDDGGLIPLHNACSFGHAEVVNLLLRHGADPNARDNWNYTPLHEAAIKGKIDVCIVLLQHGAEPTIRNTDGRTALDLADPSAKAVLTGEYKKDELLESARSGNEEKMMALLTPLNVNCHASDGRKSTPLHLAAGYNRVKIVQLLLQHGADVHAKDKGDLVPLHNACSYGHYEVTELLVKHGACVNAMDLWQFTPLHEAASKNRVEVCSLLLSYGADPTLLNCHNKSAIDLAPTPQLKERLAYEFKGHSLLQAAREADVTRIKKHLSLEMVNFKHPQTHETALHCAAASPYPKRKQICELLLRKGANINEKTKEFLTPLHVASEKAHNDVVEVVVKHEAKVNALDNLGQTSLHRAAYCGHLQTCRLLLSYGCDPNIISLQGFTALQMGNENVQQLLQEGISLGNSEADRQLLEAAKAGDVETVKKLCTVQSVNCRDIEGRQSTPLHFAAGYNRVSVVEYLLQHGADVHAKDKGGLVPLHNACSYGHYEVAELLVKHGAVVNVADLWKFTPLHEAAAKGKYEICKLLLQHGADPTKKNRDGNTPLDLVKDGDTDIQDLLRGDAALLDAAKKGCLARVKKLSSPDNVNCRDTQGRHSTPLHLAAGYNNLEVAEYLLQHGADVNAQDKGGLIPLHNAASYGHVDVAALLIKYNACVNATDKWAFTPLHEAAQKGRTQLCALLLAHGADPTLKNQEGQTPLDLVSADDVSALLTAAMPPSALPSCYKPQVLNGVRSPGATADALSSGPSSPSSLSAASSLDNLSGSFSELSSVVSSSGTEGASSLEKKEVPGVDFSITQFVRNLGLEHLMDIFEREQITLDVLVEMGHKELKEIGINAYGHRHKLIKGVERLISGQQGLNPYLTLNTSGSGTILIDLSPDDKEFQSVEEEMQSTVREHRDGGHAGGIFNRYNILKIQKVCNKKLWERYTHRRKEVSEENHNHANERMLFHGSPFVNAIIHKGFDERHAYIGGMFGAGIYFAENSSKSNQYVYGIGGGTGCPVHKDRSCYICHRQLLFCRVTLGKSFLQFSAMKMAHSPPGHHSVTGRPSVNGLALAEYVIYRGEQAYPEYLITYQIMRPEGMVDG
# measurement protocol: In vitro Scintillation Proximity Assay (SPA) for TANK-2 inhibitory activity
# Type: biochemical
# assay setup: in vitro SPA assay TANK-2 pIC50
pIC50: −log10 of the molar value.
readout kind: pIC50

1 = CCc1cc2ccc(C(C)(C#N)Cc3nc(C#N)cc(OC)n3)cc2[nH]c1=O (single isomer, unassigned) [Compound 203]
2 = CCc1cc2ccc(C(C)(C#N)Cc3nc(C#N)cc(OC)n3)cc2[nH]c1=O (single isomer, unassigned) [Compound 204]
Select one. Lower pIC50: 1 or 2 Kindly give the label for the entry you pick. 2
(2: 6.80, 1: 7.10)

----------
# target desc: Human PARP-1 enzyme (Homo sapiens, UniProt P09874)
# Construct: purchased Trevigen
# Sequence (P09874 whole entry): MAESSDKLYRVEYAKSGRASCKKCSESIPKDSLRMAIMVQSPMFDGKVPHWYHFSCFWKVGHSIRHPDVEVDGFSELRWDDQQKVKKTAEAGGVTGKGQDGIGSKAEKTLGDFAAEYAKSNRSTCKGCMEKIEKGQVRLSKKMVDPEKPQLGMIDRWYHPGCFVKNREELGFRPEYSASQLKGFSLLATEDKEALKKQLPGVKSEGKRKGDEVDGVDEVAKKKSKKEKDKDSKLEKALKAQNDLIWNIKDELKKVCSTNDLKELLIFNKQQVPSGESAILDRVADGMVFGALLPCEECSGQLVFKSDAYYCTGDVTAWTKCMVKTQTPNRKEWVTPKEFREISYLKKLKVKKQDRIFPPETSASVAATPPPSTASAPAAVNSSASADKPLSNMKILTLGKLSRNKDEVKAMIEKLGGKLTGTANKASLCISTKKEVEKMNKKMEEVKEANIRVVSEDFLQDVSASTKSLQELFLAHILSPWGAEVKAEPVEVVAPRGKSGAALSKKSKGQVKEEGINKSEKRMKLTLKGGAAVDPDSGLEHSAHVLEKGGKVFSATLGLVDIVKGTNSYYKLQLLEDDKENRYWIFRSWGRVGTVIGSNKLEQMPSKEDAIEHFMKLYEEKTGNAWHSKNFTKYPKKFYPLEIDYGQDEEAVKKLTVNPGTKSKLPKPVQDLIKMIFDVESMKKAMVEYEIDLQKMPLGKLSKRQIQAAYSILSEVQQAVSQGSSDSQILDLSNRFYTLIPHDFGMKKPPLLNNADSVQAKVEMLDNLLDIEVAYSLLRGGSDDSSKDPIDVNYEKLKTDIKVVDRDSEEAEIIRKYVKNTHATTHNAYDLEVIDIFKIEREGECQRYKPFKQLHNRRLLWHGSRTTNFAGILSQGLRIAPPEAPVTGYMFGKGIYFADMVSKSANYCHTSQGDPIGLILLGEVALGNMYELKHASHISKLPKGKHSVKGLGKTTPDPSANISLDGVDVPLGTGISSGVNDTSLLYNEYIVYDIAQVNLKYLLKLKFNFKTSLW
# measurement protocol: In vitro Scintillation Proximity Assay (SPA) for PARP-1 inhibitory activity
# Format: biochemical
# assay setup: read-out: in vitro SPA assay PARP-1 pIC50 (converted)
readout kind: IC50 (µM)

molecule	target desc	meas value
CCc1cc2ccc(C(C)(C#N)CCCN(C)C(=O)c3ccc(F)cc3)cc2[nH]c1=O (stereo not drawn)	Human PARP-1 enzyme (Homo sapiens, UniProt P09874)	0.0794
CCc1cc2ccc([C@@](C)(C#N)[C@H]3CCOc4ccccc43)cc2[nH]c1=O (single isomer, unassigned)	Human PARP-1 enzyme (Homo sapiens, UniProt P09874)	0.0631
CCc1cc2ccc(C(C)(C#N)Cc3cccc(N(C)C)n3)cc2[nH]c1=O (stereo not drawn)	Human PARP-1 enzyme (Homo sapiens, UniProt P09874)	0.0631
CCOc1cc(C#N)nc(CC(C)(C#N)c2ccc3cc(CC)c(=O)[nH]c3c2)n1 (stereo not drawn)	Human PARP-1 enzyme (Homo sapiens, UniProt P09874)	0.0631

I = CCc1cc2ccc(C(C)(C#N)Cc3cc(C)nc(Cl)c3)cc2[nH]c1=O (stereo not drawn)
II = CCc1cc2ccc(C(C)(C#N)Cc3ccc(C)c(F)c3F)cc2[nH]c1=O (stereo not drawn)
III = CCc1cc2ccc(C(C)(C#N)Cc3cc(N(C)C)nc(N(C)C)n3)cc2[nH]c1=O (stereo not drawn)
Falling order of IC50, please. The response must list the labels following the requested ordering. II, III, I

A = CCc1cc2ccc([C@@](C)(C#N)Cc3cccc(C#N)c3)cc2[nH]c1=O (single isomer, unassigned)
B = CCc1cc2ccc(C(C)(C#N)CCOc3ccc4c(c3)OCO4)cc2[nH]c1=O (stereo not drawn)
C = Cc1cc2ccc(C(C)(C#N)Cc3cc4ccccc4s3)cc2[nH]c1=O (stereo not drawn)
D = CCc1cc2ccc(C(C)(C#N)Cc3cccc4nnn(C)c34)cc2[nH]c1=O (stereo not drawn)
Please put the entries in order of rising IC50. The response must list the labels following the requested ordering. A, B, D, C

I = CCc1cc2ccc(C(C)(C#N)CC3Oc4ccccc4O3)cc2[nH]c1=O (stereo not drawn)
II = Cc1cc2ccc([C@](C)(C#N)[C@H]3CCc4cc(Br)ccc43)cc2[nH]c1=O
III = CCc1cc2ccc(C(C)(C#N)CCOc3cccc4ccccc34)cc2[nH]c1=O (stereo not drawn)
IV = CCc1cc2ccc(C(C)(C#N)Cc3ccccc3C)cc2[nH]c1=O (stereo not drawn)
V = C#CCOc1cccc(CC(C)(C#N)c2ccc3cc(CC)c(=O)[nH]c3c2)c1 (stereo not drawn)
Falling order of IC50, please. The response must list the labels following the requested ordering. III, IV, II, I, V

----------
# target desc: Human PARP-1 enzyme (Homo sapiens)
# Construct: purchased Trevigen
# measurement protocol: In vitro Scintillation Proximity Assay (SPA) for PARP-1 inhibitory activity
# Format: biochemical
# assay setup: read-out: in vitro SPA assay PARP-1 pIC50 (converted)
readout kind: IC50 (nM)

Worked examples, 3 molecules total:
molecule	readout kind	meas value
Cc1cc2ccc(C(C)(C#N)Cc3cccc(I)c3)cc2[nH]c1=O (centres unmarked) [Compound 256]	IC50	126
Cc1cc2ccc(C(C)(C#N)Cc3noc(-c4cccc(C(F)(F)F)c4)n3)cc2[nH]c1=O (centres unmarked) [Compound 70]	IC50	3980
CCc1cc2ccc(C(C)(C#N)Cc3cccc(C(F)(F)F)c3F)cc2[nH]c1=O (centres unmarked) [Compound 134]	IC50	1260

1 = CCc1cc2ccc(C(C)(C#N)Cc3c(C)c(C)c(C)c(C)c3C)cc2[nH]c1=O (centres unmarked) [Compound 89]
2 = CCc1cc2ccc(C(C)(C#N)Cc3cccc(COC)c3)cc2[nH]c1=O (centres unmarked) [Compound 8]
3 = CCc1cc2ccc(C(C)(C#N)Cc3cccc(OC[C@@H](O)CO)c3)cc2[nH]c1=O (some centres unmarked) [Compound 56]
4 = Cc1cc2ccc(C(C)(C#N)Cc3cccc4cccnc34)cc2[nH]c1=O (centres unmarked) [Compound 74]
5 = Cc1cc2ccc([C@@](C)(C#N)[C@H]3CCc4cc(C#N)ccc43)cc2[nH]c1=O [Compound 389]
Please put the entries in order of rising IC50. The response must list the labels following the requested ordering. 3, 5, 2, 4, 1
(3: 100 nM, 5: 200 nM, 2: 501 nM, 4: 1000 nM, 1: 1580 nM)

a = CCc1cc2ccc(C(C)(C#N)Cc3cccc(N4CCN(C)CC4)c3)cc2[nH]c1=O (centres unmarked) [Compound 66]
b = CCc1cc2ccc(C(C)(C#N)Cc3cccc(CCC#N)c3)cc2[nH]c1=O (centres unmarked) [Compound 169]
Among a and b , which shows a numerically higher IC50 result? Kindly give the label for the entry you pick. a

P = CCc1cc2ccc(C(C)(C#N)Cc3cccc(OCCCN4CCOCC4)c3)cc2[nH]c1=O (centres unmarked) [Compound 68]
Q = CCc1cc2ccc(C(C)(C#N)Cc3cccc4c3CCN4)cc2[nH]c1=O (centres unmarked) [Compound 237]
Select one. Lower IC50: P or Q Kindly give the label for the entry you pick. Q
(Q: 25.1 nM, P: 1000 nM)

1 = CCc1cc2ccc(C(C)(C#N)Cc3nnsc3Cl)cc2[nH]c1=O (centres unmarked) [Compound 42]
2 = CCc1cc2ccc(C(C)(C#N)Cc3cc(N(C)C)nc(C#N)n3)cc2[nH]c1=O (centres unmarked) [Compound 317]
Among 1 and 2 , which shows a numerically higher IC50 result? Kindly give the label for the entry you pick. 1

P = CCc1cc2ccc(C(C)(C#N)Cc3ccc(Cl)nc3Cl)cc2[nH]c1=O (centres unmarked) [Compound 212]
Q = CCc1cc2ccc(C(C#N)(Cc3ccccc3)C(C)C)cc2[nH]c1=O (centres unmarked) [Compound 30]
Select one. Lower IC50: P or Q Kindly give the label for the entry you pick. P
